Where do the numbers come from? From ChEMBL document CHEMBL5291721.

Target: UniProtKB Q14432
Sequence (Q14432 whole entry): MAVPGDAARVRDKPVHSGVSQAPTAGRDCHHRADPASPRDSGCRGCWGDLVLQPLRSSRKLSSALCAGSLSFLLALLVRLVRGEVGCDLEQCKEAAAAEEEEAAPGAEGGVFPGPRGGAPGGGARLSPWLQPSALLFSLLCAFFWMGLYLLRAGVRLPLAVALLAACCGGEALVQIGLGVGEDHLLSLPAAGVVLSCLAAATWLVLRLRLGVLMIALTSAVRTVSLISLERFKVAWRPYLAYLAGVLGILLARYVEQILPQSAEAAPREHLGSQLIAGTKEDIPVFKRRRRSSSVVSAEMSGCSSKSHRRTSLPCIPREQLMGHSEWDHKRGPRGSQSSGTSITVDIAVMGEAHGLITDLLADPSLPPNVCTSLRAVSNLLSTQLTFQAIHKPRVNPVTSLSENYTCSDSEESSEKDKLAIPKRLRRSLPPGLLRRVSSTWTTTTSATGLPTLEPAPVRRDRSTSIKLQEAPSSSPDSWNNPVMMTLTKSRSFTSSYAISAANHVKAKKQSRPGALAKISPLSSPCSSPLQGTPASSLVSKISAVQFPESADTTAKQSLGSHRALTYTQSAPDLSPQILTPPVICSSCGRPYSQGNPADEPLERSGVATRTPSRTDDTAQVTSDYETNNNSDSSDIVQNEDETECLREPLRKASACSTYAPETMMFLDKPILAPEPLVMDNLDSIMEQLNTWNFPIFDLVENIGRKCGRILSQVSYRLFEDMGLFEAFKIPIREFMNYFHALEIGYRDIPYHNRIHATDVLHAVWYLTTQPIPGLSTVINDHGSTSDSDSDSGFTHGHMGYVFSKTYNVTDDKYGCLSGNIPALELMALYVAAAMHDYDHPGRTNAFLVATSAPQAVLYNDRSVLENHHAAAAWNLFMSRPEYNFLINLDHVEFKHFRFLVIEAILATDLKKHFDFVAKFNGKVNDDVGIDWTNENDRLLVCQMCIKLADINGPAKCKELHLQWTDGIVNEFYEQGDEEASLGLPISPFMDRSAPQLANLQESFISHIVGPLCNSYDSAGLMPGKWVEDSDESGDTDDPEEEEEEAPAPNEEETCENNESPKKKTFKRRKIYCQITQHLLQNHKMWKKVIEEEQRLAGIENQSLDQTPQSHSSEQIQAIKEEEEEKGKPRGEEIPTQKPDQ
Type: functional
readout kind: AC50

In the examples that follow, each entry is paired with its recorded AC50.
Data request: Note AC50 for the compound shown: "CC(C)(C)CC(C)(C)c1ccc(O)c(Cc2ccc(Cl)cc2Cl)c1"
Data returned: 5.81 µM

Data request: Note AC50 for the compound shown: "CCCCCCOc1nsnc1C1=CCCN(C)C1"
Data returned: > 30 µM

Data request: Note AC50 for the compound shown: O=C(Oc1ccc2c(c1)CCCN2C(=O)C(Cl)Cl)c1ccco1 [QUINFAMIDE]
Data returned: > 30 µM

---
Data request: Note AC50 for the compound shown: "COc1ccc2c(c1)N(C[C@H](C)CN(C)C)c1ccccc1S2"
Data returned: > 30 µM

Data request: Note AC50 for the compound shown: CC1(C)NC(=O)N(c2ccc([N+](=O)[O-])c(C(F)(F)F)c2)C1=O [NILUTAMIDE]
Data returned: > 30 µM

====

Biological target: Glutamate receptor ionotropic, NMDA 1 (Rattus norvegicus, UniProt P35439); further: assay procedure not described here
The entries below are paired with their reported AC50.

Data request: Please report AC50 with Glutamate receptor ionotropic, NMDA 1 (Rattus norvegicus, UniProt P35439) for item CCC(C)n1ncn(-c2ccc(N3CCN(c4ccc(OCC5COC(Cn6cncn6)(c6ccc(Cl)cc6Cl)O5)cc4)CC3)cc2)c1=O (stereo unspecified) .
Data returned: > 30 µM

Data request: Please report AC50 with Glutamate receptor ionotropic, NMDA 1 (Rattus norvegicus, UniProt P35439) for item COC(=O)C1=C(C)NC(C)=C(C(=O)OC(C)(C)CN(C)CCC(c2ccccc2)c2ccccc2)C1c1cccc([N+](=O)[O-])c1 (stereo unspecified) .
Data returned: > 30 µM

Data request: Please report AC50 with Glutamate receptor ionotropic, NMDA 1 (Rattus norvegicus, UniProt P35439) for item "CC(C)Cn1cnc2c(N)nc3ccccc3c21" .
Data returned: > 10 µM

Data request: Please report AC50 with Glutamate receptor ionotropic, NMDA 1 (Rattus norvegicus, UniProt P35439) for item "COc1ccc2c3c1O[C@H]1C(=O)CC[C@@]4(O)[C@@H](C2)N(C)CC[C@]314" .
Data returned: > 30 µM

Data request: Please report AC50 with Glutamate receptor ionotropic, NMDA 1 (Rattus norvegicus, UniProt P35439) for item "Cc1nc([N+](=O)[O-])cn1-c1ccc([N+](=O)[O-])cc1" .
Data returned: > 30 µM

Data request: Please report AC50 with Glutamate receptor ionotropic, NMDA 1 (Rattus norvegicus, UniProt P35439) for item CC1=C(C(=O)O)N2C(=O)[C@@H](NC(=O)[C@H](N)c3ccccc3)[C@H]2SC1 [CEPHALEXIN ANHYDROUS] .
Data returned: > 10 µM

Data request: Please report AC50 with Glutamate receptor ionotropic, NMDA 1 (Rattus norvegicus, UniProt P35439) for item CCC(C(=O)O)c1ccc(N2Cc3ccccc3C2=O)cc1 (stereo unspecified) .
Data returned: > 30 µM

Data request: Please report AC50 with Glutamate receptor ionotropic, NMDA 1 (Rattus norvegicus, UniProt P35439) for item NCC(CC(=O)O)c1ccc(Cl)cc1 (stereo unspecified) .
Data returned: > 10 µM

Data request: Please report AC50 with Glutamate receptor ionotropic, NMDA 1 (Rattus norvegicus, UniProt P35439) for item COc1cccc(C2(O)CCCCC2CN(C)C)c1 (stereo unspecified) .
Data returned: > 10 µM

Data request: Please report AC50 with Glutamate receptor ionotropic, NMDA 1 (Rattus norvegicus, UniProt P35439) for item COc1ccc2c3c1O[C@H]1[C@@H](O)CC[C@H]4[C@@H](C2)N(C)CC[C@@]341 [DIHYDROCODEINE] .
Data returned: > 30 µM

Data request: Please report AC50 with Glutamate receptor ionotropic, NMDA 1 (Rattus norvegicus, UniProt P35439) for item "CN(C)/N=N/c1[nH]cnc1C(N)=O" .
Data returned: > 10 µM

Data request: Please report AC50 with Glutamate receptor ionotropic, NMDA 1 (Rattus norvegicus, UniProt P35439) for item "Nc1nc(/C(=C/CC(=O)O)C(=O)N[C@@H]2C(=O)N3C(C(=O)O)=CCS[C@H]23)cs1" .
Data returned: > 30 µM

Data request: Please report AC50 with Glutamate receptor ionotropic, NMDA 1 (Rattus norvegicus, UniProt P35439) for item C=CCc1ccccc1OCC(O)CNC(C)C (stereo unspecified) .
Data returned: > 30 µM

Data request: Please report AC50 with Glutamate receptor ionotropic, NMDA 1 (Rattus norvegicus, UniProt P35439) for item "CCCCc1ncc(/C=C(\Cc2cccs2)C(=O)O)n1Cc1ccc(C(=O)O)cc1" .
Data returned: > 10 µM

Data request: Please report AC50 with Glutamate receptor ionotropic, NMDA 1 (Rattus norvegicus, UniProt P35439) for item "CC(=O)O[C@H]1C[C@@H]2CC[C@@H]3[C@H](CC[C@@]4(C)[C@H]3C[C@H]([N+]3(C)CCCCC3)[C@@H]4OC(C)=O)[C@@]2(C)C[C@@H]1N1CCCCC1" .
Data returned: > 30 µM

Data request: Please report AC50 with Glutamate receptor ionotropic, NMDA 1 (Rattus norvegicus, UniProt P35439) for item O=C(NCCN1CCOCC1)c1ccc(Cl)cc1 [MOCLOBEMIDE] .
Data returned: > 10 µM

Data request: Please report AC50 with Glutamate receptor ionotropic, NMDA 1 (Rattus norvegicus, UniProt P35439) for item "CCCc1nc(C(C)(C)O)c(C(=O)OCc2oc(=O)oc2C)n1Cc1ccc(-c2ccccc2-c2nnn[nH]2)cc1" .
Data returned: > 10 µM

Data request: Please report AC50 with Glutamate receptor ionotropic, NMDA 1 (Rattus norvegicus, UniProt P35439) for item "CC[C@H]1OC(=O)[C@H](C)[C@@H](O[C@H]2C[C@@](C)(OC)[C@@H](O)[C@H](C)O2)[C@H](C)[C@@H](O[C@@H]2O[C@H](C)C[C@H](N(C)C)[C@H]2O)[C@](C)(O)C[C@@H](C)CN(C)[C@H](C)[C@@H](O)[C@]1(C)O" .
Data returned: > 10 µM

Data request: Please report AC50 with Glutamate receptor ionotropic, NMDA 1 (Rattus norvegicus, UniProt P35439) for item COC(=O)C1=C(C)NC(C)=C(C(=O)OC2CCCN(Cc3ccccc3)C2)C1c1cccc([N+](=O)[O-])c1 (stereo unspecified) .
Data returned: > 30 µM

Data request: Please report AC50 with Glutamate receptor ionotropic, NMDA 1 (Rattus norvegicus, UniProt P35439) for item "Cc1cn([C@H]2C[C@H](N=[N+]=[N-])[C@@H](CO)O2)c(=O)[nH]c1=O" .
Data returned: > 10 µM

Data request: Please report AC50 with Glutamate receptor ionotropic, NMDA 1 (Rattus norvegicus, UniProt P35439) for item "O=C(O)C[C@H](O)C[C@H](O)/C=C/c1c(C2CC2)nc2ccccc2c1-c1ccc(F)cc1" .
Data returned: > 10 µM

====

Observed AC50, system UniProt P32238.
Sequence (P32238 whole entry): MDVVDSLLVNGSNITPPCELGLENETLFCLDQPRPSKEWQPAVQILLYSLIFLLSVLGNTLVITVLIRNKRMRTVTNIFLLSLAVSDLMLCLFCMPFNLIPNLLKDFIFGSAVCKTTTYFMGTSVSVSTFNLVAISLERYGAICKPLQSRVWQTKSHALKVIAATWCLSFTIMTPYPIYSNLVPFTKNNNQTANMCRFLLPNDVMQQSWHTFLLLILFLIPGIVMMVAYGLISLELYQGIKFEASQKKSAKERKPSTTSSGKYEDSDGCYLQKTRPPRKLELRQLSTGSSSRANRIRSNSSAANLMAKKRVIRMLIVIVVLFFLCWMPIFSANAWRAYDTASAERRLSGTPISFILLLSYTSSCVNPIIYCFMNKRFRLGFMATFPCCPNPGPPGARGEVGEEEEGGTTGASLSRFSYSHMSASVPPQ

In the examples that follow, each entry is paired with its recorded AC50.
Data request: Please report AC50 with UniProt P32238 for item COc1ccc(CC(C)(C)NC[C@H](O)c2cc(O)cc3c2OCC(=O)N3)cc1 [OLODATEROL] .
Data returned: > 30 µM

Data request: Please report AC50 with UniProt P32238 for item Cc1ccc(S(=O)(=O)NC(=O)NN2CC3CCCC3C2)cc1 (stereo not drawn) [GLICLAZIDE] .
Data returned: > 10 µM

Data request: Please report AC50 with UniProt P32238 for item C#C[C@]1(O)CC[C@H]2[C@@H]3CCC4=Cc5oncc5C[C@]4(C)[C@H]3CC[C@@]21C [DANAZOL] .
Data returned: > 10 µM

Data request: Please report AC50 with UniProt P32238 for item COc1ccc(C(=O)Nc2ccccc2CCC2CCCCN2C)cc1 (stereo not drawn) [ENCAINIDE] .
Data returned: > 30 µM

Data request: Please report AC50 with UniProt P32238 for item C=CCC1(C(C)CC)C(=O)NC(=O)NC1=O (stereo not drawn) [TALBUTAL] .
Data returned: > 10 µM

Data request: Please report AC50 with UniProt P32238 for item O=C(NCCN1CCOCC1)c1ccc(Cl)cc1 [MOCLOBEMIDE] .
Data returned: > 10 µM

Data request: Please report AC50 with UniProt P32238 for item CC[C@H]1[C@@H](O)[C@@H]2[C@H](CC[C@]3(C)[C@@H]([C@H](C)CCC(=O)O)CC[C@@H]23)[C@@]2(C)CC[C@@H](O)C[C@@H]12 [OBETICHOLIC ACID] .
Data returned: > 30 µM

Please look at the following compound next.
Data request: Please report AC50 with UniProt P32238 for item CN1C(C(=O)Nc2ccccn2)=C(O)c2sc(Cl)cc2S1(=O)=O [LORNOXICAM] .
Data returned: > 30 µM

====

Target: Thromboxane A2 receptor (Homo sapiens, UniProt P21731); further: assay procedure not described here
Sequence (P21731 whole entry): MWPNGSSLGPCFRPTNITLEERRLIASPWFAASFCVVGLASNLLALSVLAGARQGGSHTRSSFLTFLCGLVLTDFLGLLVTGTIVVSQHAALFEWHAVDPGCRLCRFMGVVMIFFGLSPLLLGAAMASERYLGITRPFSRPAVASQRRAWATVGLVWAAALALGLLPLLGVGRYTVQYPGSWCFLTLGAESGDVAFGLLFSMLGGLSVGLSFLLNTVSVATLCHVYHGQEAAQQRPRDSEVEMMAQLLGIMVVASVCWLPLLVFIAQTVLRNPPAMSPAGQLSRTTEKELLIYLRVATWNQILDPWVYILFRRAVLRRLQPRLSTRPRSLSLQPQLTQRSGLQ
readout kind: AC50

In the examples that follow, each entry is paired with its recorded AC50.
Data request: Note AC50 for the compound shown: COC(=O)C1=C(C)NC(C)=C(C(=O)OC2CCCN(Cc3ccccc3)C2)C1c1cccc([N+](=O)[O-])c1 (stereo unspecified)
Data returned: > 30 µM

Data request: Note AC50 for the compound shown: "Nc1nc(N)nc(-c2cc(Cl)ccc2Cl)n1"
Data returned: > 30 µM

Data request: Note AC50 for the compound shown: C[C@]12CCC(=O)C=C1CC[C@@H]1[C@@H]2[C@@H](O)C[C@@]2(C)[C@H]1CC[C@]2(O)C(=O)CO [HYDROCORTISONE]
Data returned: > 30 µM

---
Data request: Note AC50 for the compound shown: CN(C)CCC(c1ccc(Cl)cc1)c1ccccn1 (stereo unspecified)
Data returned: > 30 µM

Data request: Note AC50 for the compound shown: CCOc1ccccc1OCC1CNCCO1 (stereo unspecified)
Data returned: > 30 µM

Data request: Note AC50 for the compound shown: CN1C(=O)C(O)N=C(c2ccccc2Cl)c2cc(Cl)ccc21 (stereo unspecified)
Data returned: > 30 µM
